- assayed_target: CaBzz1-D1
- test_description: SPOT peptide array binding signal intensity (averaged, normalized) (arbitrary units (background-subtracted, floor 0; scale differs between SH3 domains)); higher = stronger binding of the SH3 domain to the peptide
Decide by SPOT peptide array binding signal intensity: equal to or exceeding 200 means satisfied, less means not satisfied.

Prompt: Please tell me: is the binder LEFRAILFIPKRAPF at or over 200 in terms of SPOT peptide array binding signal intensity?
Response: satisfied

Prompt: Please tell me: is the binder NNNKMRPHLPPLSSG at or over 200 in terms of SPOT peptide array binding signal intensity?
Response: not satisfied

Prompt: Please tell me: is the binder NNFYRPLLRSVLVLL at or over 200 in terms of SPOT peptide array binding signal intensity?
Response: not satisfied

Prompt: Please tell me: is the binder VDFTLPPPPPPPGLD at or over 200 in terms of SPOT peptide array binding signal intensity?
Response: satisfied

Prompt: Please tell me: is the binder ATNVPVAPPPPPASL at or over 200 in terms of SPOT peptide array binding signal intensity?
Response: not satisfied

Prompt: Please tell me: is the binder KFIPSRPAPKPPSSA at or over 200 in terms of SPOT peptide array binding signal intensity?
Response: satisfied

New cases:
Prompt: Please tell me: is the binder NMLSRPRLAKLPSIR at or over 200 in terms of SPOT peptide array binding signal intensity?
Response: not satisfied

These data points were gathered from the supplement of paper PMC4466140.
